# experiment notes: physchem
# cond: buffer, pH 7.4
Decide by logD: equal to or exceeding 2 means TRUE, less means FALSE.

>  <compound>
CCc1cnc(N2CCC([N+]3([O-])Cc4cn(-c5ccc(S(C)(=O)=O)cc5F)nc4C3)CC2)nc1 (stereo not drawn)

>  <class assignment>
FALSE

$$$$
>  <compound>
CC(C)COC(=O)N1CCC(n2cc(CNc3ccc(S(C)(=O)=O)cc3F)cn2)CC1

>  <class assignment>
TRUE

$$$$
>  <compound>
CC(C)OC(=O)N1CCC(n2cc(CNc3ccc(S(C)(=O)=O)cc3F)cn2)CC1

>  <class assignment>
TRUE

$$$$
>  <compound>
CC(C)OC(=O)N1CCC(n2cc3c(n2)CN(c2ccc(S(C)(=O)=O)cc2F)C3)CC1

>  <class assignment>
TRUE

$$$$
>  <compound>
CCc1cnc(OC(=O)N2CCC(n3cc(CNc4ccc(S(C)(=O)=O)cc4F)cn3)CC2)nc1

>  <class assignment>
TRUE

$$$$
>  <compound>
CCc1cnc(N2CCC(N3Cc4cn(-c5ccc(S(C)(=O)=O)cc5F)nc4C3)CC2)nc1

>  <class assignment>
TRUE

$$$$
>  <compound>
CS(=O)(=O)c1ccc(NCc2cnn(C3CCN(C(=O)OC4CCC4)CC3)c2)c(F)c1

>  <class assignment>
TRUE

$$$$
>  <compound>
Cc1nc(S(C)(=O)=O)ccc1NCc1cnn(C2CCN(C(=O)OC(C)C)CC2)c1

>  <class assignment>
FALSE

$$$$

###

# system name: Glucose-dependent insulinotropic receptor (Homo sapiens, UniProt Q8TDV5)
# Sequence (Q8TDV5 whole entry): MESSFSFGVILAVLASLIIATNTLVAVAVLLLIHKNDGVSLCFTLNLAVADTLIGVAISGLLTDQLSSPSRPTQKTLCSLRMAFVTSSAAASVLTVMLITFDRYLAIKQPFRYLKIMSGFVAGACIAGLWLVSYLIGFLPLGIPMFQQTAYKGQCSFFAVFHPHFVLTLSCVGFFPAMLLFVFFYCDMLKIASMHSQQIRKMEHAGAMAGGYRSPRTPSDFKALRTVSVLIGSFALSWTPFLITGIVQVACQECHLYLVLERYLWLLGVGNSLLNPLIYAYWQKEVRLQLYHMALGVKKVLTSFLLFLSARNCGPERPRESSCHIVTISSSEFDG
# experiment notes: Agonist activity at human GPR119 expressed in HEK293 cells co-expressing CRE beta-lactamase assessed as cAMP accumulation by HTRF assay
pEC50: −log10 of the molar value.
The entries below come with measured pEC50 values attached.

>  <mol>
Cc1nc(S(C)(=O)=O)ccc1NCc1cnn(C2CCN(C(=O)OC(C)C)CC2)c1

>  <readout relation>
<

>  <pEC50>
5.00

$$$$
>  <mol>
CCc1cnc(OC(=O)N2CCC(n3cc(CNc4ccc(S(C)(=O)=O)cc4F)cn3)CC2)nc1

>  <readout relation>
=

>  <pEC50>
7.33

$$$$
>  <mol>
CC(C)OC(=O)N1CCC(n2cc3c(n2)CN(c2ccc(S(C)(=O)=O)cc2F)C3)CC1

>  <readout relation>
=

>  <pEC50>
6.59

$$$$
>  <mol>
CC(C)OC(=O)N1CCC(N2Cc3cn(-c4ccc(S(C)(=O)=O)cc4F)nc3C2)CC1

>  <readout relation>
=

>  <pEC50>
6.06

$$$$

###

# experiment notes: Intrinsic clearance in human liver microsomes
# Format: ADME, Microsome
# cond: read-out: CLH
The entries below come with measured microsomal CLint values attached.

>  <compound>
CC(C)OC(=O)N1CCC(n2cc3c(n2)CN(c2ccc(S(C)(=O)=O)cc2F)C3)CC1

>  <microsomal CLint>
36.1 µL/min/mg

$$$$
>  <compound>
CC(C)OC(=O)N1CCC(n2cc(CNc3ccc(S(C)(=O)=O)cc3F)cn2)CC1

>  <microsomal CLint>
9.7 µL/min/mg

$$$$
>  <compound>
CCc1cnc(N2CCC([N+]3([O-])Cc4cn(-c5ccc(S(C)(=O)=O)cc5F)nc4C3)CC2)nc1 (stereo unspecified)

>  <microsomal CLint>
9.8 µL/min/mg

$$$$
>  <compound>
CC(C)OC(=O)N1CCC(N2Cc3cn(-c4ccc(S(C)(=O)=O)cc4F)nc3C2)CC1

>  <microsomal CLint>
10.5 µL/min/mg

$$$$
>  <compound>
CCc1cnc(N2CCC(N3Cc4cn(-c5ccc(S(C)(=O)=O)cc5F)nc4C3)CC2)nc1

>  <microsomal CLint>
23 µL/min/mg

$$$$
>  <compound>
CCc1cnc(OC(=O)N2CCC(n3cc(CNc4ccc(S(C)(=O)=O)cc4F)cn3)CC2)nc1

>  <microsomal CLint>
148 µL/min/mg

$$$$

Hey, just so you know, these numbers are from ChEMBL document CHEMBL2311308.
